molecular target: T1, human OT7T175 (metastin receptor) (human, UniProt Q969F8 1-398); assay: competition with Cy-5 metastin (40-54) on hOT7T175-CHO cells, FMAT
T1 construct: expressed on CHO cells; also called hOT7T175; hOT7T175-expressed CHO cells
T1 sequence (Q969F8 whole entry L364H): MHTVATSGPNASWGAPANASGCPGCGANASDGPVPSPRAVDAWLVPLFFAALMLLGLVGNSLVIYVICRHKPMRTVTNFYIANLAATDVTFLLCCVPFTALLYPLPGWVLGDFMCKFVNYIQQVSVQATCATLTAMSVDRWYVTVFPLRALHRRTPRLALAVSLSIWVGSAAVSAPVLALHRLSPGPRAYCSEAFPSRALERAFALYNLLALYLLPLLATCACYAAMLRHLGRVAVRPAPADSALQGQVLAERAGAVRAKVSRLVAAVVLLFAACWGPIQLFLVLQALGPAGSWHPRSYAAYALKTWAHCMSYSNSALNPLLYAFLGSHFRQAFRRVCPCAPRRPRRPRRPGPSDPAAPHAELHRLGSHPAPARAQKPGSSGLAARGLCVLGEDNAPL
Non-standard residues stand in square brackets, D forms with d. No end group written: not given here. Phe(3,4-Cl2) = N[C@@H](Cc1ccc(Cl)c(Cl)c1)C(=O)O; Arg(Me) = CNC(=N)NCCC[C@H](N)C(=O)O; 4Pal = N[C@@H](Cc1ccncc1)C(=O)O; azaGly = NNC(=O)O
reportedEndpoint: IC50
Please answer using a numeric value trailed by its unit.

Determine from records and report IC50 for YNWNSFGXRF (Nle8; C-terminal amide, also called Compound No. 105) [[Nle8]MS10]
880 nM

Determine from records and report IC50 for [dY]NTNSFGL[Arg(Me)]F-NH2 (N-terminus assumed; SMILES CNC(=N)NCCC[C@H](NC(=O)[C@H](CC(C)C)NC(=O)CNC(=O)[C@H](Cc1ccccc1)NC(=O)[C@H](CO)NC(=O)[C@H](CC(N)=O)NC(=O)[C@@H](NC(=O)[C@H](CC(N)=O)NC(=O)[C@H](N)Cc1ccc(O)cc1)[C@@H](C)O)C(=O)N[C@@H](Cc1ccccc1)C(N)=O, also called Compound No. 205) [[D-Tyr1,Thr3,Arg(Me)9]MS10]
260 nM

Determine from records and report IC50 for [dY][dN][4Pal]NSF[azaGly]L[Arg(Me)]F-NH2 (also called Compound No. 303) [[D-Tyr1,D-Asn2,Pya(4)3,AzaGly7,Arg(Me)9]MS10]
0.5 nM

Determine from records and report IC50 for YNWNSFGLR[Phe(3,4-Cl2)]-NH2 (also called Compound No. 199) [[Phe(3,4Cl2)10]MS10]
470 nM
